Assay: Pharmacokinetics of crystalline form III, fasting and non-fasting
Type: in vivo, Beagle dog
Conditions: male, beagle, dog, whole blood, po, 100 mg/kg, 100 mg/kg po, fast, blood
reported_property: Cmax (ng/mL)
Number only, in ng/mL; omit the unit.

Returns the measured Cmax for the input molecule. Input: COC(=O)N1CCO[C@@H](Cc2c(-c3c(F)cc(S(N)(=O)=O)cc3F)nc3cc(Cl)ccn23)C1 [Crystalline form III]
14600

----------
Assay: Pharmacokinetics of crystalline form III, fasting and non-fasting
Format: in vivo, Beagle dog
Conditions: female, beagle, dog, plasma, po, 100 mg/kg, 100 mg/kg po, fast
reported_property: Cmax (ng/mL)
Number only, in ng/mL; omit the unit.

Returns the measured Cmax for the input compound. Input: COC(=O)N1CCO[C@@H](Cc2c(-c3c(F)cc(S(N)(=O)=O)cc3F)nc3cc(Cl)ccn23)C1 [Crystalline form III]
1680

----------
Test: Pharmacokinetics of crystalline form III, fasting and non-fasting
Type: in vivo, Beagle dog
Settings: female, beagle, dog, whole blood, po, 100 mg/kg, 100 mg/kg po, Non-fast, blood, female; read-out: AUClast
reported_property: AUC(0-t)

Returns the measured AUC(0-t) for the input compound. Input: COC(=O)N1CCO[C@@H](Cc2c(-c3c(F)cc(S(N)(=O)=O)cc3F)nc3cc(Cl)ccn23)C1 [Crystalline form III]
675 µg·h/mL

----------
Experiment: Pharmacokinetics of crystalline form III, fasting and non-fasting
Type: in vivo, Beagle dog
Settings: male, beagle, dog, plasma, po, 100 mg/kg, 100 mg/kg po, Non-fast
reported_property: Tmax (h)
Number only, in h; omit the unit.

Returns the measured Tmax for the input compound. Input: COC(=O)N1CCO[C@@H](Cc2c(-c3c(F)cc(S(N)(=O)=O)cc3F)nc3cc(Cl)ccn23)C1 [Crystalline form III]
4.67

----------
Assay: Pharmacokinetics, crystalline form I versus crystalline form V
Type: in vivo, Beagle dog
Conditions: male, beagle, dog, plasma, po, 10 mg/kg, 10 mg/kg po, fasting, male dogs, 0.5% CMC-Na suspension
reported_property: AUC(0-inf) (ng·h/mL)
Number only, in ng·h/mL; omit the unit.

Returns the measured AUC(0-inf) for the input molecule. Input: COC(=O)N1CCO[C@@H](Cc2c(-c3c(F)cc(S(N)(=O)=O)cc3F)nc3cc(Cl)ccn23)C1 [Crystalline form I]
8940

----------
Experiment: Pharmacokinetics of crystalline form III, fasting and non-fasting
Type: in vivo, Beagle dog
Conditions: male, beagle, dog, whole blood, po, 100 mg/kg, 100 mg/kg po, Non-fast, blood
reported_property: Tmax (h)
Number only, in h; omit the unit.

Returns the measured Tmax for the input molecule. Input: COC(=O)N1CCO[C@@H](Cc2c(-c3c(F)cc(S(N)(=O)=O)cc3F)nc3cc(Cl)ccn23)C1 [Crystalline form III]
4.67

----------
Assay: Pharmacokinetics of crystalline form III, fasting and non-fasting
Type: in vivo, Beagle dog
Details: female, beagle, dog, plasma, po, 100 mg/kg, 100 mg/kg po, fast
reported_property: Tmax
Number first, unit second.

Returns the measured Tmax for the input compound. Input: COC(=O)N1CCO[C@@H](Cc2c(-c3c(F)cc(S(N)(=O)=O)cc3F)nc3cc(Cl)ccn23)C1 [Crystalline form III]
1.33 h

Origin of values: patent US20230406850A1
